Target: full-length human PIKFYVE (GST-PIKFYVE) (Homo sapiens (Human), UniProt Q9Y2I7, L932S/Q1183K/Q995L/S1033A/S696N/T998S)
Sequence (Q9Y2I7 whole entry S696N/L932S/Q995L/T998S/S1033A/Q1183K): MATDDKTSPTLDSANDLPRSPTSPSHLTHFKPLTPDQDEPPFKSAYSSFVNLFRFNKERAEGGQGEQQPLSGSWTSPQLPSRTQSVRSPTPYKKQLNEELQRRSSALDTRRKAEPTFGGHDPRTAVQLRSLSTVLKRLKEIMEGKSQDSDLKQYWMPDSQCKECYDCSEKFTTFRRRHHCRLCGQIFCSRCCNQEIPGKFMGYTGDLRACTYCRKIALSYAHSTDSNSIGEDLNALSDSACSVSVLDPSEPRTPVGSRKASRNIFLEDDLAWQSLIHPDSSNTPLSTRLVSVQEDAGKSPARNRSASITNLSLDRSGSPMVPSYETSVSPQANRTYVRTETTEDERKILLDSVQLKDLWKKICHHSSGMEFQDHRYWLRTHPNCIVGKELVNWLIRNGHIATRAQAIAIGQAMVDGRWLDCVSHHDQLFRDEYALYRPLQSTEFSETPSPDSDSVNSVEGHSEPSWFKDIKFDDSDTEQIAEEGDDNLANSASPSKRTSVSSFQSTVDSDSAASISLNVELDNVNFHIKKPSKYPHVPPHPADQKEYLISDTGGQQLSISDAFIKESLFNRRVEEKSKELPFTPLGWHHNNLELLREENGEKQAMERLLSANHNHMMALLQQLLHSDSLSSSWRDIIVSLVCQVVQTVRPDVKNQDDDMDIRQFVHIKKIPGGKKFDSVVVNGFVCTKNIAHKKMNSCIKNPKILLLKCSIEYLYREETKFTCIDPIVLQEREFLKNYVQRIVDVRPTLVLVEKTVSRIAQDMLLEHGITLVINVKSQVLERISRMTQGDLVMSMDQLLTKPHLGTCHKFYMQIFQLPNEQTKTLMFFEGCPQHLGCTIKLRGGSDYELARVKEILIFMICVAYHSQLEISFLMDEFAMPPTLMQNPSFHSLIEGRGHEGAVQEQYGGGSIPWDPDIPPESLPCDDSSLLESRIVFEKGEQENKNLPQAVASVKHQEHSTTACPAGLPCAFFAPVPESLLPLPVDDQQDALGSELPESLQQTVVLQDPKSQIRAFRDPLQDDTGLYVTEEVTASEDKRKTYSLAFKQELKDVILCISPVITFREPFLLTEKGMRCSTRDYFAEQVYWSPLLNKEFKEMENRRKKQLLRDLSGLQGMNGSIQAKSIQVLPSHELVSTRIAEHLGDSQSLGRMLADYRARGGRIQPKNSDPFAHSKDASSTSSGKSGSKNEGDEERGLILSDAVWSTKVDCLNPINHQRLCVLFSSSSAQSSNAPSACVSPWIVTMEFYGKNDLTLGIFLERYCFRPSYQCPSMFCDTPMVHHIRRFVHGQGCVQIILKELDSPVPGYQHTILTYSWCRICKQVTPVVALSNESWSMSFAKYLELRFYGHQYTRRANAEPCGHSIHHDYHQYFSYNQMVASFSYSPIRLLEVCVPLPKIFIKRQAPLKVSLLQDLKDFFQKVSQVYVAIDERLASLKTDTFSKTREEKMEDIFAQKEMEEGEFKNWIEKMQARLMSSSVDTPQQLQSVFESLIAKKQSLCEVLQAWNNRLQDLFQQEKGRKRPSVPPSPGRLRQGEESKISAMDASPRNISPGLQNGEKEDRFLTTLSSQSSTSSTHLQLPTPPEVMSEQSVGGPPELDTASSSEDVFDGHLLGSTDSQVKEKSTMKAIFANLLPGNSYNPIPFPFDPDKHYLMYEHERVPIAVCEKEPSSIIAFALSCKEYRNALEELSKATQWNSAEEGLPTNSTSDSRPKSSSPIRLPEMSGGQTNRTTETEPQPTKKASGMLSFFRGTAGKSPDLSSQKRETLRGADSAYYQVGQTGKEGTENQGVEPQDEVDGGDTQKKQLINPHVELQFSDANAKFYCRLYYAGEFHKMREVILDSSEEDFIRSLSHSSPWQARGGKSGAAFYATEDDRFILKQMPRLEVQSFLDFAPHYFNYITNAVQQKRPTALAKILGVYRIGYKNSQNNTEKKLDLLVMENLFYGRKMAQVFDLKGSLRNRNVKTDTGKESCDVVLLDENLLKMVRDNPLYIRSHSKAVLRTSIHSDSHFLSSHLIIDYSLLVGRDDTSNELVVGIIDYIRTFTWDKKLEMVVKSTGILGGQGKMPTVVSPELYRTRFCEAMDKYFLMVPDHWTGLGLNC
Experiment: PIKfyve biochemical assay (ADP-Glo Kinase assay, Carna Biosciences)
Conditions: ADP-Glo, full-length human PIKFYVE; read-out: hPIKfyve IC50
Measure Name: IC50

Query: Which measured IC50 value corresponds to c1coc(-c2nc(N3CCOCC3)c3ncccc3n2)c1 ?
Result: 100 to 1000 nM

Query: Which measured IC50 value corresponds to Cn1c(-c2ccccc2)nn(-c2nc(N3CCOCC3)c3ncccc3n2)c1=O ?
Result: 1000 to 10000 nM

Query: Which measured IC50 value corresponds to c1ccc(Nc2nc(N3CCOCC3)c3ncc(Cc4cccnc4)cc3n2)cc1 ?
Result: 100 to 1000 nM

Query: Which measured IC50 value corresponds to c1ccc(Oc2nc(N3CCOCC3)c3ncc(-c4ccco4)cc3n2)cc1 ?
Result: > 10000 nM

Query: Which measured IC50 value corresponds to CC(C)(C)OC(=O)N1CCC=C(c2ccn(-c3nc(N4CCOCC4)c4ncccc4n3)n2)C1 ?
Result: 1000 to 10000 nM
